Origin of values: the supplement of paper PMC10567573

B1: CLCN6 (parent)
chain: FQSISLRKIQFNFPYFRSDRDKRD

variants of: B1; experiment: protein stability index of a GFP-peptide fusion (GPS, HEK-293T) (PSI 1-6); higher = more stable; details: c terminus: a fixed tail appended;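 further: lentivirally expressed fusions sorted by FACS into six bins by GFP to DsRed ratio, PSI derived from sequencing read proportions per bin multiplied by bin number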
Measured metric: protein stability index
Answer using only a numeral; do not append any unit.

Reported protein stability index ( FQSISLRKCQFNFPYFRSDRDKRD [I9C] ) = 1.98

Reported protein stability index ( FQSISLRKIQFNFPYFRSMRDKRD [D19M] ) = 2.01

Reported protein stability index ( FQSISLRKIQFNFPKFRSDRDKRD [Y15K] ) = 2
